The following compounds are listed with their measured activity, negative = inhibition values.
- Subject Of Test: Glutathione peroxidase 1 (Homo sapiens) (UniProt P07203)
- Sequence (P07203 whole entry, looked up): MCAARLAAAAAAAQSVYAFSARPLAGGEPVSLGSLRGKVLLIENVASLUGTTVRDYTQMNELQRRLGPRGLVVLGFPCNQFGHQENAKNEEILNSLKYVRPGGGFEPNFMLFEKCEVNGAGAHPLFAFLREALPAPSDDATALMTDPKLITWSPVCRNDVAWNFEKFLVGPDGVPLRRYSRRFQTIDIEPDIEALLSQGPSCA
- Experimental Details: Primary qHTS Assay for Inhibitors of Recombinant Selenoprotein Glutathione Peroxidase 1 (GPX1) (AID 1845191); also: % is scaled to controls: 0 for no effect and ±100 for the full control effect; nearly all actives have a fitted effect of over 65% in size
- Condition Description: recombinant GPX1, GR-coupled NADPH fluorescence, 15 min; series mostly up to 48.8 µM
Records with an inconclusive call do not appear. The source made the active and inactive calls. Calls follow the shape of the dose curve; as a rule, active = well fitted inhibition curve with a large enough effect; inconclusive = small, poorly fitted or top-dose-only effect; inactive = flat fitted curve, though single readings scatter.

Reference set, count: 2
| Compound | Subject Of Test | activity, negative = inhibition |
| --- | --- | --- |
| C=C1CO[C@@]2(O[C@H]3CC4C5CC=C6C[C@@H](O)C[C@@H](O[C@@H]7OC[C@H](O)[C@H](O[C@@H]8OC[C@@H](O)[C@H](O)[C@H]8O)[C@H]7O[C@@H]7O[C@@H](C)[C@H](OC(C)=O)[C@@H](OC(C)=O)[C@H]7OC(C)=O)[C@]6(C)C5CC[C@]4(C)[C@@H]3[C@@H]2C)[C@@H](O)[C@H]1OC1OC(C)C(O)C(O)C1O (stereo partly drawn) | Glutathione peroxidase 1 (Homo sapiens) (UniProt P07203) | 0.917% [at 9.52 µM] (inactive) |
| CC1OC(OC2C(O)COC(O[C@@H]3[C@@H](O)[C@@H](O)[C@H](OC4C(OC(=O)[C@]56CCC(C)(C)CC5C5=CCC7[C@@]8(C)C[C@H](O)[C@H](OC9OC(CO)C(O)C(O)C9O)[C@@](C)(CO)C8[C@H](O)C[C@@]7(C)[C@]5(C)CC6)OCC(O)C4O)O[C@H]3C)C2O)C(O)C(O)C1O (stereo partly drawn) | Glutathione peroxidase 1 (Homo sapiens) (UniProt P07203) | -4.86% [at 9.52 µM] (inactive) |

Consider the additional compound presented here.
activity, negative = inhibition recorded for this compound, CC(=O)O[C@H]1CC(C)(C)CC2[C@]13CO[C@@]21CCC2[C@@]4(C)CC[C@H](O[C@@H]5OC[C@H](O[C@@H]6O[C@H](CO)[C@@H](O)[C@H](O)[C@H]6O[C@@H]6OC[C@@H](O[C@@H]7O[C@H](CO)[C@@H](O)[C@H](O)[C@H]7O)[C@H](O)[C@H]6O)[C@H](O)[C@H]5O[C@@H]5O[C@H](CO)[C@@H](O)[C@H](O)[C@H]5O)[C@@](C)(CO)C4CC[C@@]2(C)[C@]1(C)C[C@H]3O (stereo partly drawn) , is 2.15% [at 9.52 µM] (inactive)
